- target_of_assay: 5-hydroxytryptamine receptor 2C (Homo sapiens)
- Sequence (P28335 whole entry): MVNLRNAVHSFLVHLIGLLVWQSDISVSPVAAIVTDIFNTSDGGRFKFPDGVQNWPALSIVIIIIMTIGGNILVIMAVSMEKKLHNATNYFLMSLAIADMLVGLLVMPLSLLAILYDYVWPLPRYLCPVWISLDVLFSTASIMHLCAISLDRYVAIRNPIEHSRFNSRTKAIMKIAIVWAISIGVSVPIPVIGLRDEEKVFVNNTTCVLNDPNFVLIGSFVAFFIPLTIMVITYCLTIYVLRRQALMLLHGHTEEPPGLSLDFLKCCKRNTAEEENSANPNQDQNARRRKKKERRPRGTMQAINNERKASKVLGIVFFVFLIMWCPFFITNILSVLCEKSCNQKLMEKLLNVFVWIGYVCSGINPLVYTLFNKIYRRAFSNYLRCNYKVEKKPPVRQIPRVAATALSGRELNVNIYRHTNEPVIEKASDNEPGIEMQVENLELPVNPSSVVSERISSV
Below are Ki measurements against 5-hydroxytryptamine receptor 2C (Homo sapiens) drawn from the literature.

{"input_smiles": "COc1ccc(N2Cc3ccc(Cl)c(Cl)c3C2=O)cc1OCCN1CCC(C)CC1", "Ki": "0.001 µM"}
{"input_smiles": "COc1cccc(-c2ccc(C(=O)N3CCN(C(=O)c4ccc5cc[nH]c5c4)[C@H](C)C3)cc2)c1", "Ki": "> 10 µM"}
{"input_smiles": "Nc1nccc(-c2c[nH]c3cccc(O)c23)n1", "Ki": "> 10 µM"}
{"input_smiles": "CC(=O)Nc1ccc(N2CC=C(c3ccc(Cl)c(Cl)c3)C2=O)cc1OCCN1CCCCC1", "Ki": "0.0501 µM"}
{"input_smiles": "COc1ccccc1-c1cc(CN(C)C)ccc1Cl", "Ki": "0.27 µM"}
{"input_smiles": "Cc1cc2c(cc1Cl)N(C(=O)Nc1ccc(Oc3cnccc3C)nc1)CC2", "Ki": "0.001 µM"}
{"input_smiles": "Cc1ncccc1Oc1ccc(NC(=O)N2CCc3c(Br)cccc32)cn1", "Ki": "0.0158 µM"}
{"input_smiles": "COc1cc2c(cc1OC)C1=NO[C@@H](CN3CCN(C/C=C(\\C)c4ccccc4)CC3)[C@@H]1CO2", "Ki": "> 1 µM"}
{"input_smiles": "c1cc2c3c(c1)[C@H]1CCC[C@H]1CN3CCNC2", "Ki": "0.003 µM"}
{"input_smiles": "COc1cc(OC2CCC(C)(C)CC2)c(F)cc1CNC(=O)[C@@H]1CCCN1", "Ki": "0.0009 µM"}
{"input_smiles": "COc1ccc(N2CC=C(c3ccc(Cl)c(Cl)c3)C2=O)cc1OCCN1CCOCC1", "Ki": "0.00631 µM"}
{"input_smiles": "O=C(NCCCCN1CCN(c2ccccc2)CC1)[C@@H]1CCc2ccccc2N1", "Ki": "> 1 µM"}
{"input_smiles": "COc1ccc(N2CC=C(c3ccc(C)cc3)C2=O)cc1OCCN1CCC(C)CC1", "Ki": "0.00158 µM"}
{"input_smiles": "O=C(Nc1ccc(OCc2ccccn2)nc1)N1CCc2cc(Cl)ccc21", "Ki": "0.0316 µM"}
{"input_smiles": "Cc1cc2c(cc1C(F)(F)F)N(C(=O)Nc1ccc(OCc3ccccn3)cc1)CC2", "Ki": "0.00251 µM"}
{"input_smiles": "CN1CCN2c3c(cccc31)[C@@H]1CN(CCCc3noc4cc(F)ccc34)CC[C@@H]12", "Ki": "0.3 µM"}
{"input_smiles": "Cn1cc(Br)c(C(=O)N2CCN(CCc3ccc(F)cc3F)CC2)n1", "Ki": "2.82 µM"}
{"input_smiles": "COc1ccc(Sc2ccc(C)cc2N2CCNCC2)cc1", "Ki": "< 0.1 µM"}
{"input_smiles": "O=S(=O)(c1ccc(F)cc1)N1CCN(CCc2ccc(F)cc2F)CC1", "Ki": "3.78 µM"}
{"input_smiles": "Clc1ccccc1Cc1cc2c(nn1)CCNCC2", "Ki": "0.2 µM"}
{"input_smiles": "O=C(c1cnn2cccnc12)N1CCN(CCc2ccc(F)cc2F)CC1", "Ki": "0.91 µM"}
